assay: Cytotoxicity against human PBMC cells by MTT assay; format: cell-based
assay metric: CC50

INSERT INTO results (mol, observed_measurement) VALUES
  ('CC[n+]1ccc(-c2cc[n+](Cc3cc(C[n+]4ccc(-c5cc[n+](CC)cc5)cc4)cc(-[n+]4ccc(-c5cc[n+](-c6cc(C[n+]7ccc(-c8cc[n+](CC)cc8)cc7)cc(C[n+]7ccc(-c8cc[n+](CC)cc8)cc7)c6)cc5)cc4)c3)cc2)cc1.F[P-](F)(F)(F)(F)F.F[P-](F)(F)(F)(F)F.F[P-](F)(F)(F)(F)F.F[P-](F)(F)(F)(F)F.F[P-](F)(F)(F)(F)F.F[P-](F)(F)(F)(F)F.F[P-](F)(F)(F)(F)F.F[P-](F)(F)(F)(F)F.F[P-](F)(F)(F)(F)F.F[P-](F)(F)(F)(F)F', '> 100 µg/mL'),
  ('c1cc(CN2CCCNCCNCCCNCC2)ccc1CN1CCCNCCNCCCNCC1', '> 10 µg/mL');

# credit: ChEMBL document CHEMBL2177043
